This listing pairs binders with measured koff.
Biological target: T1, biotinylated recombinant cynomolgus monkey trimeric ARG2 enzyme (Avi-cynoARG2-His10) (cynomolgus monkey, UniProt P78540 23-354 (human entry), biotinylated)
T1 construct: also called cynomolgus ARG2
T1 chain: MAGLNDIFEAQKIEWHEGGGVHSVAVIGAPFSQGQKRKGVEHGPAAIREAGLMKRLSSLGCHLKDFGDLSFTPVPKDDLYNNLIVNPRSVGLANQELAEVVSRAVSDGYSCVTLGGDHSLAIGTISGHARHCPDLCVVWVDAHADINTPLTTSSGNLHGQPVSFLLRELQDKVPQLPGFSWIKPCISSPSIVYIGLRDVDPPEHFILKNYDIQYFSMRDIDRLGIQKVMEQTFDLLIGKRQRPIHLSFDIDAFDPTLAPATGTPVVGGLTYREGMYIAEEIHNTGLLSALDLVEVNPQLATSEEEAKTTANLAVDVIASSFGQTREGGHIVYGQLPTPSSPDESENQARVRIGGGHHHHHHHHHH
Assay: BLI (OctetRED) extended assay, biotinylated cyno ARG2 on streptavidin, Fab as analyte, 1:1 fit
Give just the numeric value; s⁻¹ need not be written.

C0021158 Fab (Fab, V domains shown, Human Fab) VH: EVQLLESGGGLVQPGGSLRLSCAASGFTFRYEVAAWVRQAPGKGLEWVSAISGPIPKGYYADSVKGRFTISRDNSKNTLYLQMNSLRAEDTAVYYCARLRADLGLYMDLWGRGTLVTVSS VL: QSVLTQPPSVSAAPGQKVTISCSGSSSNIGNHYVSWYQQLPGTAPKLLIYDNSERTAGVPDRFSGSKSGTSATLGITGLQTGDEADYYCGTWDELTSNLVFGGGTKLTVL :: 4.64e-05
C0021181 Fab (Fab, V domains shown, Human Fab) VH: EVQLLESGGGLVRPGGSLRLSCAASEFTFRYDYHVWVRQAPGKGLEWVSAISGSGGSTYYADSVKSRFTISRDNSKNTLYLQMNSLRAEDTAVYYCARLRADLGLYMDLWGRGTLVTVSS VL: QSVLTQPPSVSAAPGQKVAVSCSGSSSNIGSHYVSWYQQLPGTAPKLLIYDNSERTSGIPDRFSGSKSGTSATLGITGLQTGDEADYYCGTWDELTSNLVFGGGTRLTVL :: 4.43e-05
C0021177 Fab (Fab, V domains shown, Human Fab) VH: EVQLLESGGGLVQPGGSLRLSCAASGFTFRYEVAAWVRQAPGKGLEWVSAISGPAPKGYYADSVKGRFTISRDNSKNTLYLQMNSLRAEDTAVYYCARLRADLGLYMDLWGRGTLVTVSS VL: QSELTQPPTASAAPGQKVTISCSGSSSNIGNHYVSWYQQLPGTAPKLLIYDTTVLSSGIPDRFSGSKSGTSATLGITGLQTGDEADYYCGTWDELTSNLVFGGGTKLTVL :: 3.12e-05

Kindly consider the entry below.
Prompt line: Consider the binder C0021180 Fab (Fab, V domains shown, Human Fab) VH: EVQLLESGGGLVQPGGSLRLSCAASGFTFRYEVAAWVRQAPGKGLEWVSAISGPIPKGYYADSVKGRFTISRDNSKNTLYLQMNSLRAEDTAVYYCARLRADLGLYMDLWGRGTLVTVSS VL: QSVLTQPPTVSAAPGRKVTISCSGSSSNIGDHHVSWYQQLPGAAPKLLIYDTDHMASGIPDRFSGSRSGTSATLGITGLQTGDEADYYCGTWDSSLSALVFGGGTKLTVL and give its measured koff.
Response line: 0.000135
